Experiment: Intraduodenal dosing with and without β-glucuronidase, catheterized rat
Format: in vivo
Conditions: male, Sprague Dawley, rat, plasma, 10 mg/kg, rats N=6; Compound 1 10 mg/kg intraduodenal with β-glucuronidase; read-out: Cmax average ± standard deviation
Give measured Cmax for each item. Keep answers brief.
Answers are plain numbers, in ng/mL.

As a guide, the following entries are already answered.
COMPOUND | TEST_RESULT
COc1cc2c(cc1OC)-c1n[nH]c(N(c3cccc(F)c3)[C@H]3O[C@@H](C(=O)O)[C@H](O)[C@@H](O)[C@@H]3O)c1C2 | 6450
COc1cc2c(cc1OC)-c1n[nH]c(Nc3cccc(F)c3)c1C2 | 129

Switching to the query record.
# lookup: Cmax of COc1cc2c(cc1OC)-c1nn(C3OC(C(=O)O)C(O)C(O)C3O)c(Nc3cccc(F)c3)c1C2 (stereo in doubt)
755

====

Experiment: Oral gavage pharmacokinetics, jugular and portal vein sampling, first pass metabolism
Format: in vivo, rat
Conditions: male, Sprague Dawley, rat, plasma (portal vein sample); rats N=4; Compound 1 75 mg/kg oral gavage; portal sample; 12 hrs
RECORDED_METRIC: concentration at 12 h (ng/mL)
Answers are plain numbers, in ng/mL.

MOLECULE | concentration at 12 h / ng/mL
COc1cc2c(cc1OC)-c1n[nH]c(Nc3cccc(F)c3)c1C2 | 250

Record concentration at 12 h for all entries; do not skip any.
1. COc1cc2c(cc1OC)-c1nn(C3OC(C(=O)O)C(O)C(O)C3O)c(Nc3cccc(F)c3)c1C2 (stereo in doubt)
2. COc1cc2c(cc1OC)-c1n[nH]c(N(c3cccc(F)c3)[C@H]3O[C@@H](C(=O)O)[C@H](O)[C@@H](O)[C@@H]3O)c1C2

1: 87.2; 2: 8000

====

Test: Intraduodenal dosing with and without β-glucuronidase, catheterized rat
Assay type: in vivo
Conditions: male, Sprague Dawley, rat, plasma, other: intraduodenal, 10 mg/kg, rats N=6; Compound 1 10 mg/kg intraduodenal with β-glucuronidase; 2 hrs
Would you kindly list concentration at 2 h for each of these molecules?
Answers are plain numbers, in ng/mL.

MOLECULE | UNITS | TEST_RESULT
COc1cc2c(cc1OC)-c1nn(C3OC(C(=O)O)C(O)C(O)C3O)c(Nc3cccc(F)c3)c1C2 (stereo in doubt) [Cpd 1-GluB] | ng/mL | 275

Respectfully, I request concentration at 2 h for each entry included below.
1. COc1cc2c(cc1OC)-c1n[nH]c(N(c3cccc(F)c3)[C@H]3O[C@@H](C(=O)O)[C@H](O)[C@@H](O)[C@@H]3O)c1C2 [Cpd 1-GluA]
2. COc1cc2c(cc1OC)-c1n[nH]c(Nc3cccc(F)c3)c1C2 [Compound 1]

1: 812; 2: 21.2

====

Test: Oral gavage pharmacokinetics, jugular and portal vein sampling, first pass metabolism
Format: in vivo, rat
Settings: male, Sprague Dawley, rat, plasma (portal vein sample); rats N=4; Compound 1 75 mg/kg oral gavage; portal sample; 2 hrs
RECORDED_METRIC: concentration at 2 h

COMPOUND | concentration at 2 h
COc1cc2c(cc1OC)-c1n[nH]c(Nc3cccc(F)c3)c1C2 | 1880 ng/mL
COc1cc2c(cc1OC)-c1n[nH]c(N(c3cccc(F)c3)[C@H]3O[C@@H](C(=O)O)[C@H](O)[C@@H](O)[C@@H]3O)c1C2 | 14700 ng/mL

// next item, concentration at 2 h requested
// returns reported concentration at 2 h for input COc1cc2c(cc1OC)-c1nn(C3OC(C(=O)O)C(O)C(O)C3O)c(Nc3cccc(F)c3)c1C2 (stereo in doubt)
142 ng/mL
